# Test system: HCT116
# Assay Summary: Growth assay using Alamar Blue
# Type: cell-based
# Protocol Conditions: Homo sapiens, HCT-116, read-out: IC50 against cell line HCT116
pIC50: −log10 of the molar value.
pIC50 for assorted compounds

Reference set (3 entries):
{"Compound": "CNS(=O)(=O)Cc1cccc(Nc2cc(-c3ccccc3OC)ncn2)c1 [Compound 49]", "pIC50": "> 5.70"}
{"Compound": "COCCNS(=O)(=O)Cc1cccc(Nc2cc(-c3ccccc3OC)ncn2)c1 [Compound 86]", "pIC50": "> 5.30"}
{"Compound": "COc1ccccc1-c1cc(Nc2cccc(CS(=O)(=O)N(C)C)c2)ncn1 [Compound 20]", "pIC50": "> 5.30"}

Please look at the following compound next.
Task: I am curious: what pIC50 value has been reported for COc1ccccc1-c1cc(Nc2cccc(CS(N)(=O)=O)c2)ncn1 [Compound 85] ?
Output: > 5.70

Taken from patent US8507498B2.
